Below, each of the binders is paired with its reported ACTIVITY (%) LCAT value.
Biological target: T1, lecithin:cholesterol acyltransferase (LCAT), purified from human plasma (human, UniProt P04180 25-440)
T1 sequence (looked up): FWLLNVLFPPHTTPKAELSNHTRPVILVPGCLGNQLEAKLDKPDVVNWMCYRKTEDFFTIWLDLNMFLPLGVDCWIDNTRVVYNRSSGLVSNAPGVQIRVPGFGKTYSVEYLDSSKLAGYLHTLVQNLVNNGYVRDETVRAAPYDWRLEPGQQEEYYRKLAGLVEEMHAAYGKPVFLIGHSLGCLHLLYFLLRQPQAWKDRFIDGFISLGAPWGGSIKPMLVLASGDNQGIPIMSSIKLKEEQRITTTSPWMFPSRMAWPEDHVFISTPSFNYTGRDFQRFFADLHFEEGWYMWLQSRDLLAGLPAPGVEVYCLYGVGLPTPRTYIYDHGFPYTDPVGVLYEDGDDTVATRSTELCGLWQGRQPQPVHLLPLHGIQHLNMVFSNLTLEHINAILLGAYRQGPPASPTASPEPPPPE
Assay: cell-based or functional assay
Non-standard residues stand in square brackets, D forms with d. No end group written: not given here. Nal = naphthylalanine (isomer not specified); Aib = CC(C)(N)C(=O)O

binder: PVLDLFRELLNELLE [peptide 97]
ACTIVITY (%) LCAT: 4
//
binder: PVLD[Nal]FRELLNELLEALKQKLK (not fully specified) [peptide 34]
ACTIVITY (%) LCAT: 32
//
binder: PVLDLFRELLNELLEWLKQKLK [peptide 3]
ACTIVITY (%) LCAT: 98
//
binder: GVLDLFRELLNELLEALKQKLKK [peptide 2]
ACTIVITY (%) LCAT: 105
//
binder: PVLDLFRELLEELKQKLK [peptide 210]
ACTIVITY (%) LCAT: 46
//
binder: PVLDKFREKLNE[Aib]LEALKQKLK [peptide 74]
ACTIVITY (%) LCAT: 10
//
binder: PVLELFEQLLEKLLDALQKKLK [peptide 168]
ACTIVITY (%) LCAT: 17
//
binder: PVLDEFREKLNEALEALKQKLK [peptide 94]
ACTIVITY (%) LCAT: 5
//
binder: PVLDLFRELLNELLEGLKQKLK [peptide 22]
ACTIVITY (%) LCAT: 54
//
binder: [dP][dV][dL][dD][dL][dF][dR][dE][dL][dL][dN][dE][Aib][dL][dE][dA][dL][dK][dQ][dK][dL][dK] [peptide 96]
ACTIVITY (%) LCAT: 5
//
binder: Ac-PVLDLFRELLNELLQKLK-NH2 [peptide 218]
ACTIVITY (%) LCAT: 29
//
binder: PVLELFENLLERLLEALQKKLK [peptide 161]
ACTIVITY (%) LCAT: 27
//
binder: PVLELFDNLLDKLLDALQKKLR [peptide 180]
ACTIVITY (%) LCAT: 8
//
binder: PLDLFRELLNELLEALKQKLK [peptide 85]
ACTIVITY (%) LCAT: 7
